Experiment: Solubility of Formula I in various vehicles
Format: physicochemical
Settings: aqueous with cosolvent or surfactant or cyclodextrin, thermodynamic from solid; 50% PG/50 mM citrate buffer (pH = 7); room temperature after 1 day
READOUT: solubility at 1 day (mg/mL)

> print(dat)
                                   compound  reading
1  O=C1c2c(c3c4ccc(O)cc4n(C4OC(CO)C(O)C(O)C4O)c3c3[nH]c4cc(O)ccc4c23)C(=O)N1NC(CO)CO (stereo not shown) [Formula I]       27

----------
Assay: Solubility of Formula I in various vehicles
Format: physicochemical
Conditions: aqueous buffer, thermodynamic from solid; 50 mM citrate buffer (pH = 7); room temperature after 1 day
READOUT: solubility at 1 day (µg/mL)

> print(dat)
                                   molecule  reading
1  O=C1c2c(c3c4ccc(O)cc4n(C4OC(CO)C(O)C(O)C4O)c3c3[nH]c4cc(O)ccc4c23)C(=O)N1NC(CO)CO (stereo not shown)      670

----------
Experiment: Solubility of Formula I in various vehicles
Assay type: physicochemical
Settings: aqueous buffer, thermodynamic from solid; 50 mM citrate buffer (pH = 5); room temperature after 1 day
READOUT: solubility at 1 day

> print(dat)
                                   compound              readout    reading
1  O=C1c2c(c3c4ccc(O)cc4n(C4OC(CO)C(O)C(O)C4O)c3c3[nH]c4cc(O)ccc4c23)C(=O)N1NC(CO)CO (stereo not shown)  solubility at 1 day  720 µg/mL

----------
Assay: Solubility of Formula I in various vehicles
Type: physicochemical
Conditions: aqueous with cosolvent or surfactant or cyclodextrin, thermodynamic from solid; 40% PG/water (w/v); room temperature after 1 day
READOUT: solubility at 1 day (mg/mL)

> print(dat)
                                   compound              readout  readout.unit  reading
1  O=C1c2c(c3c4ccc(O)cc4n(C4OC(CO)C(O)C(O)C4O)c3c3[nH]c4cc(O)ccc4c23)C(=O)N1NC(CO)CO (stereo not shown) [Formula I]  solubility at 1 day         mg/mL       12

----------
Assay: Solubility of Formula I in various vehicles
Type: physicochemical
Details: aqueous with cosolvent or surfactant or cyclodextrin, thermodynamic from solid; 50% PEG 400/water (w/v); room temperature after 1 day
READOUT: solubility at 1 day (mg/mL)

> print(dat)
                                   compound  readout.unit  reading
1  O=C1c2c(c3c4ccc(O)cc4n(C4OC(CO)C(O)C(O)C4O)c3c3[nH]c4cc(O)ccc4c23)C(=O)N1NC(CO)CO (stereo not shown)         mg/mL       25

----------
Test: Solubility of Formula I in various vehicles
Assay type: physicochemical
Details: aqueous with cosolvent or surfactant or cyclodextrin, thermodynamic from solid; 75% PEG 400/water (w/v); room temperature after 1 day
READOUT: solubility at 1 day (mg/mL)

> print(dat)
                                   compound              readout  readout.unit  reading
1  O=C1c2c(c3c4ccc(O)cc4n(C4OC(CO)C(O)C(O)C4O)c3c3[nH]c4cc(O)ccc4c23)C(=O)N1NC(CO)CO (stereo not shown) [Formula I]  solubility at 1 day         mg/mL       24

----------
Assay: Solubility of Formula I in various vehicles
Type: physicochemical
Conditions: aqueous with cosolvent or surfactant or cyclodextrin, thermodynamic from solid; 50% PG/50 mM citrate buffer (pH = 4); room temperature after 1 day
READOUT: solubility at 1 day

> print(dat)
                                   compound              readout   reading
1  O=C1c2c(c3c4ccc(O)cc4n(C4OC(CO)C(O)C(O)C4O)c3c3[nH]c4cc(O)ccc4c23)C(=O)N1NC(CO)CO (stereo not shown)  solubility at 1 day  25 mg/mL

----------
Assay: Solubility of Formula I in various vehicles
Format: physicochemical
Settings: aqueous with cosolvent or surfactant or cyclodextrin, thermodynamic from solid; 50% PG/50 mM citrate buffer (pH = 3); room temperature after 1 day
READOUT: solubility at 1 day (mg/mL)

> print(dat)
                                   compound  reading
1  O=C1c2c(c3c4ccc(O)cc4n(C4OC(CO)C(O)C(O)C4O)c3c3[nH]c4cc(O)ccc4c23)C(=O)N1NC(CO)CO (stereo not shown) [Formula I]       24

----------
Experiment: Solubility of Formula I in various vehicles
Assay type: physicochemical
Conditions: thermodynamic from solid; water; room temperature after 1 day
READOUT: solubility at 1 day (µg/mL)

> print(dat)
                                   molecule  reading
1  O=C1c2c(c3c4ccc(O)cc4n(C4OC(CO)C(O)C(O)C4O)c3c3[nH]c4cc(O)ccc4c23)C(=O)N1NC(CO)CO (stereo not shown) [Formula I]      620

----------
Experiment: Solubility of Formula I in various vehicles
Format: physicochemical
Conditions: aqueous buffer, thermodynamic from solid; 50 mM citrate buffer (pH = 6); room temperature after 1 day
READOUT: solubility at 1 day (µg/mL)

> print(dat)
                                   compound  reading
1  O=C1c2c(c3c4ccc(O)cc4n(C4OC(CO)C(O)C(O)C4O)c3c3[nH]c4cc(O)ccc4c23)C(=O)N1NC(CO)CO (stereo not shown) [Formula I]      720

----------
Assay: Solubility of Formula I in various vehicles
Type: physicochemical
Details: organic solvent or mixture, thermodynamic from solid; 100% PG; room temperature after 1 day
READOUT: solubility at 1 day (µg/mL)

> print(dat)
                                   compound              readout  readout.unit  reading
1  O=C1c2c(c3c4ccc(O)cc4n(C4OC(CO)C(O)C(O)C4O)c3c3[nH]c4cc(O)ccc4c23)C(=O)N1NC(CO)CO (stereo not shown)  solubility at 1 day         µg/mL     1200

----------
Experiment: Solubility of Formula I in various vehicles
Assay type: physicochemical
Settings: aqueous with cosolvent or surfactant or cyclodextrin, thermodynamic from solid; 25% PEG 400/water (w/v); room temperature after 1 day
READOUT: solubility at 1 day (mg/mL)

> print(dat)
                                   molecule  reading
1  O=C1c2c(c3c4ccc(O)cc4n(C4OC(CO)C(O)C(O)C4O)c3c3[nH]c4cc(O)ccc4c23)C(=O)N1NC(CO)CO (stereo not shown)       16

----------
Test: Solubility of Formula I in various vehicles
Format: physicochemical
Details: saline or isotonic, thermodynamic from solid; 5% glucose/water; room temperature after 1 day
READOUT: solubility at 1 day (mg/mL)

> print(dat)
                                   compound  reading
1  O=C1c2c(c3c4ccc(O)cc4n(C4OC(CO)C(O)C(O)C4O)c3c3[nH]c4cc(O)ccc4c23)C(=O)N1NC(CO)CO (stereo not shown)      0.6

----------
Test: Solubility of Formula I in various vehicles
Format: physicochemical
Settings: organic solvent or mixture, thermodynamic from solid; 100% PEG 400; room temperature after 1 day
READOUT: solubility at 1 day

> print(dat)
                                   molecule      reading
1  O=C1c2c(c3c4ccc(O)cc4n(C4OC(CO)C(O)C(O)C4O)c3c3[nH]c4cc(O)ccc4c23)C(=O)N1NC(CO)CO (stereo not shown) [Formula I]  < 670 µg/mL

----------
Test: Solubility of Formula I in various vehicles
Type: physicochemical
Conditions: aqueous with cosolvent or surfactant or cyclodextrin, thermodynamic from solid; 50% PG/water (w/v); room temperature after 1 day
READOUT: solubility at 1 day (mg/mL)

> print(dat)
                                   molecule  readout.unit  reading
1  O=C1c2c(c3c4ccc(O)cc4n(C4OC(CO)C(O)C(O)C4O)c3c3[nH]c4cc(O)ccc4c23)C(=O)N1NC(CO)CO (stereo not shown) [Formula I]         mg/mL       24

----------
Test: Solubility of Formula I in various vehicles
Assay type: physicochemical
Conditions: aqueous with cosolvent or surfactant or cyclodextrin, thermodynamic from solid; 50% PG/50 mM citrate buffer (pH = 6); room temperature after 1 day
READOUT: solubility at 1 day (mg/mL)

> print(dat)
                                   molecule  reading
1  O=C1c2c(c3c4ccc(O)cc4n(C4OC(CO)C(O)C(O)C4O)c3c3[nH]c4cc(O)ccc4c23)C(=O)N1NC(CO)CO (stereo not shown)       27

----------
Assay: Solubility of Formula I in various vehicles
Format: physicochemical
Conditions: aqueous with cosolvent or surfactant or cyclodextrin, thermodynamic from solid; 75% PG/water (w/v); room temperature after 1 day
READOUT: solubility at 1 day (mg/mL)

> print(dat)
                                   compound  readout.unit  reading
1  O=C1c2c(c3c4ccc(O)cc4n(C4OC(CO)C(O)C(O)C4O)c3c3[nH]c4cc(O)ccc4c23)C(=O)N1NC(CO)CO (stereo not shown) [Formula I]         mg/mL       45

Provenance of the data: patent US6979676B2
